target-of-assay: h-TGR5 (Homo sapiens)
Sequence (Q8TDU6 whole entry): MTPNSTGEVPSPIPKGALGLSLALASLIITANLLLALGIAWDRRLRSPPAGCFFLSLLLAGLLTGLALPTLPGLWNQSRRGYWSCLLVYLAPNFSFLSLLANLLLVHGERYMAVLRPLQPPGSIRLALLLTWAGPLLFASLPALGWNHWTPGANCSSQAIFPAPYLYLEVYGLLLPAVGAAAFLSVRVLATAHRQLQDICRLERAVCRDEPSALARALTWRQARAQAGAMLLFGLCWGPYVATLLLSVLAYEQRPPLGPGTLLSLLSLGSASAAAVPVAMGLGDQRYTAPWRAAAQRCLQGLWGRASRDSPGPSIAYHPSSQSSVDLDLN
method: TGR5 cAMP Assay using Cisbio cAMP Dynamic 2 htrf assay kit
run-conditions: hTGR5CRE-luc HEK 293 cells
pEC50: −log10 of the molar value.
value-kind: pEC50

Solved cases below.
{"molecule": "COc1cc(C(C)(C)c2nnc(SCc3c(F)cc(S(=O)(=O)NCCC[N+](C)(C)C)cc3F)n2-c2ccc(F)cc2)ccc1Cl", "pEC50": "> 7.00"}
{"molecule": "COc1ccc(C(C)(C)c2cnc(SCc3c(F)cc(S(=O)(=O)N(C)[C@@H](CCC[N+](C)(C)C)C(=O)O)cc3F)n2-c2ccc(F)cc2)cc1Cl [Compound 14g]", "pEC50": "> 7.00"}

**Q:** Field request: pEC50 | item: `COc1cc(C(C)(C)c2cnc(SCc3c(F)cc(C(=O)NCC[N+](C)(C)CCCS(=O)(=O)[O-])cc3Cl)n2-c2ccc(F)cc2)ccc1Cl`
**A:** > 7.00

**Q:** For the molecule CN([C@@H](CCCC[N+](C)(C)C)C(=O)O)S(=O)(=O)c1cc(F)c(CSc2ncc(C(C)(C)c3ccc(Cl)c(Cl)c3)n2-c2ccc(F)cc2)c(Cl)c1 [Compound 17h, 2,2,2-trifluoroacetate] , what pEC50 is on record?
**A:** > 7.00
